# target-of-assay: EstFA (Ferroplasma acidiphilum)
# experiment: Enantioselectivity of EstFA towards chiral esters and lactones
# Assay type: biochemical
# test-context: 100 mM citrate buffer pH 2.0, 5 μg EstFA, 10 hours
# Experimental: For an estimation of enantioselectivity of EstFA towards chiral esters and lactones, a number of primary and secondary alcohols as well as carboxylic acids and lactones were hydrolysed. The above substrate specificities were tested in 96-well plates, using 100 mM citrate buffer (pH 2.0) in the presence of 5 μg pure EstFA. For the substrate, the concentrations between 10 nM and 10 mM were chosen. […]
Label t for high-side % e.e. (at or above 80%) and f for low-side % e.e. (below it).

Completed entries (count: 8):
{"compound": "COC(=O)[C@H](C)N [alanine methylester]", "group-label": "f"}
{"compound": "CCCC(=O)OC(C)c1ccccc1 (stereo not shown) [1-phenyl ethylbutyrate]", "group-label": "f"}
{"compound": "CCCC(=O)OCC1COC(C)(C)O1 (stereo not shown) [solketal butyrate]", "group-label": "f"}
{"compound": "COC(=O)C(C)O (stereo not shown) [methyl lactate]", "group-label": "f"}
{"compound": "O=C1CCC(CO)O1 (stereo not shown) [dihydro-5-hydroxymethyl-2(3H)-furanone]", "group-label": "t"}
{"compound": "COC(=O)CC(C)O (stereo not shown) [methyl-3-hydroxybutyrate]", "group-label": "t"}
{"compound": "COC(=O)[C@@H](N)Cc1c[nH]c2ccccc12 [tryptophane methylester]", "group-label": "f"}
{"compound": "COC(=O)C(C)CO (stereo not shown) [methyl-3-hydroxy-2-methylpropionate]", "group-label": "t"}

Identify whether the reported % e.e. of the following compound is 80% or greater: CC1(C)COC(=O)C1O (stereo not shown) [pantolactone]
f

---

# target-of-assay: EstFA (Ferroplasma acidiphilum, UniProt Q2PCE5)
# Sequence (Q2PCE5 entry or part of it): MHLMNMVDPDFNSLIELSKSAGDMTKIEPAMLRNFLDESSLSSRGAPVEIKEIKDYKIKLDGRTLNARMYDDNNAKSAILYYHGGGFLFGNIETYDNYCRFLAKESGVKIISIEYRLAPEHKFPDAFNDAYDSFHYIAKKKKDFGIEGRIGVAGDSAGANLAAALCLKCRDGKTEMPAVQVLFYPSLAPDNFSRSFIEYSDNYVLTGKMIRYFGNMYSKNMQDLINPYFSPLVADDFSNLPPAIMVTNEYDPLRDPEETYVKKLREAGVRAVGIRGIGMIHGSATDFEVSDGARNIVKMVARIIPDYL
# experiment: Enantioselectivity of EstFA towards chiral esters and lactones
# Type: biochemical
# test-context: 100 mM citrate buffer pH 2.0, 5 μg EstFA, 10 hours
observable: % c (%)
Numbers only, in %.

Some entries whose results are on file:
{"molecule": "COC(=O)[C@@H](N)Cc1c[nH]c2ccccc12", "% c / %": 4.33}
{"molecule": "CCCC(=O)OC(C)c1ccccc1 (stereo not shown) [1-phenyl ethylbutyrate]", "% c / %": 36.2}
{"molecule": "CC1(C)COC(=O)C1O (stereo not shown)", "% c / %": 10.06}
{"molecule": "COC(=O)CC(C)O (stereo not shown) [methyl-3-hydroxybutyrate]", "% c / %": 26.2}
{"molecule": "COC(=O)C(C)O (stereo not shown) [methyl lactate]", "% c / %": 3.4}
{"molecule": "CCCC(=O)OCC1COC(C)(C)O1 (stereo not shown) [solketal butyrate]", "% c / %": 29.0}
{"molecule": "CC(=O)OC1CC(C)CCC1C(C)C (stereo not shown) [menthyl acetate]", "% c / %": 42.2}
{"molecule": "O=C1CCC(CO)O1 (stereo not shown) [dihydro-5-hydroxymethyl-2(3H)-furanone]", "% c / %": 39.3}

Parameter requested: % c. Apply to each item below.
1. COC(=O)[C@H](C)N
2. COC(=O)C(C)CO (stereo not shown) [methyl-3-hydroxy-2-methylpropionate]

1. 8.71
2. 30.8
